B1: Mineralocorticoid receptor, residues 600 to 675; numbered along this chain, P08235 (parent)
chain: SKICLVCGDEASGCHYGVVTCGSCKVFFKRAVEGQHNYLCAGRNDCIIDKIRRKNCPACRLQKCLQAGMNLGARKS

- Variants of: B1
- method-summary: abundance fitness (aPCA) (normalised: wild type 0, dead -1); higher = more abundant; growth selection in yeast, the domain comes from the species named
- measurement-setup: Homo sapiens
endpoint: abundance fitness

• SKICLVCGDEASGCHYGVVTCGSCKVFFKRAVEGQHNYLCAGRNDCIIDKIRRKNCPACRLQHCLQAGMNLGARKS [K63H] = -0.099
• SKICLVCGDEASGCHYGMVTCGSCKVFFKRAVEGQHNYLCAGRNDCIIDKIRRKNCPACRLQKCLQAGMNLGARKS [V18M] = -0.233
• SKICLVCNDEASGCHYGVVTCGSCKVFFKRAVEGQHNYLCAGRNDCIIDKIRRKNCPACRLQKCLQAGMNLGARKS [G8N] = -0.235
• SKICLVCGDEASGCHYGVVTCGSCKVFFKRAVEGQHNYLCAGRNDCIIDKIRRFNCPACRLQKCLQAGMNLGARKS [K54F] = 0
• SKICLVCGDEASGCHYGVVTCGSCKVFFKRAVEGQHNYLCAGRDDCIIDKIRRKNCPACRLQKCLQAGMNLGARKS [N44D] = 0.071
• SKICLVCGDEASGCHYGVVTCGSCKVFFKRAVEGQHNYLCAGRNDCIIDKIRRKNCPACRLQKCLQAHMNLGARKS [G68H] = -0.381
• SKICLVCGDEASGCHYGVVTCGSCKVFFMRAVEGQHNYLCAGRNDCIIDKIRRKNCPACRLQKCLQAGMNLGARKS [K29M] = -0.04
• SKICLVCEDEASGCHYGVVTCGSCKVFFKRAVEGQHNYLCAGRNDCIIDKIRRKNCPACRLQKCLQAGMNLGARKS [G8E] = -0.075
• SKICLVCGDEASGCHYGVVTCGSCKVFFKRAVEGQHNYLCAGRNDCIIDKIRRKNCPECRLQKCLQAGMNLGARKS [A58E] = -0.12
• SKICLVCGDEASGCHYGVVTCGSCKVFFKRAYEGQHNYLCAGRNDCIIDKIRRKNCPACRLQKCLQAGMNLGARKS [V32Y] = -0.1
• SKICLVCGDEASGCHTGVVTCGSCKVFFKRAVEGQHNYLCAGRNDCIIDKIRRKNCPACRLQKCLQAGMNLGARKS [Y16T] = -0.027
• SKICLVCGDEASGCHYGVVTCGSCKVFFKRAVEGQHNYLCAGRNDCIIDKIRRKNCPACRLQGCLQAGMNLGARKS [K63G] = -0.104
• SKICLVCGDEARGCHYGVVTCGSCKVFFKRAVEGQHNYLCAGRNDCIIDKIRRKNCPACRLQKCLQAGMNLGARKS [S12R] = 0.004
• SKICLVCGDEASGCHYGVVTCGSCKVFFKRAVEGQHNYLCAGRNDCIIDKIRRKNCPACRLQKCLQAGHNLGARKS [M69H] = -0.617
• SKICLVCGDEASGCHYGVVTCGSCKVFFKRAVSGQHNYLCAGRNDCIIDKIRRKNCPACRLQKCLQAGMNLGARKS [E33S] = 0.008
• SKICLVCGDEPSGCHYGVVTCGSCKVFFKRAVEGQHNYLCAGRNDCIIDKIRRKNCPACRLQKCLQAGMNLGARKS [A11P] = -0.001
• SKICLVCGDEASGCHYGVVTCGSCKVFFKRAVEGQHNYLCAGRNDCIIDKIRRKNCPACRLQKCLQAGMNLGARKL [S76L] = -0.012
• SKICLVCGDEASGCHYGVVTCGSCKVFFKRAVEGQHNYLCAGRNDCIIDKIRRKPCPACRLQKCLQAGMNLGARKS [N55P] = -0.144
• SKICLVCGDEASGCHYGVVTCGSCKVFFGRAVEGQHNYLCAGRNDCIIDKIRRKNCPACRLQKCLQAGMNLGARKS [K29G] = -0.048
• SKICLVCSDEASGCHYGVVTCGSCKVFFKRAVEGQHNYLCAGRNDCIIDKIRRKNCPACRLQKCLQAGMNLGARKS [G8S] = -0.057
• SKICLVCGDEASGCHYGVVTCGSCKVFFKRAVEGQHNYLCAGRNDCIIDKIRWKNCPACRLQKCLQAGMNLGARKS [R53W] = -0.035
• SKICLVCGDEASGCHYGVVTCGSCKVFFKRAVEGQHNYLCAGRNDCIIDKIRRKNCPACRLQKCLQAGMNLGARLS [K75L] = -0.056
